For each of the binders below, state its kon.
Target: T1, human IL-23 (human, UniProt Q9NPF7 20-189; P29460 23-328)
T1 construct: Bought recombinant heterodimeric cytokine (eBioscience 34-8239-85 for panning; R&D Systems for the splenocyte assay); also called hIL-23; hIL23
T1 sequence (looked up) 1: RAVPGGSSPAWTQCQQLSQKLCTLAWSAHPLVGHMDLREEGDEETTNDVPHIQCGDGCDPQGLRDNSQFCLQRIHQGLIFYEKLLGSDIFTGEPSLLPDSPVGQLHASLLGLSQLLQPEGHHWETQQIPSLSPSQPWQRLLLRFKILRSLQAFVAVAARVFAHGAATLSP
T1 sequence (looked up) 2: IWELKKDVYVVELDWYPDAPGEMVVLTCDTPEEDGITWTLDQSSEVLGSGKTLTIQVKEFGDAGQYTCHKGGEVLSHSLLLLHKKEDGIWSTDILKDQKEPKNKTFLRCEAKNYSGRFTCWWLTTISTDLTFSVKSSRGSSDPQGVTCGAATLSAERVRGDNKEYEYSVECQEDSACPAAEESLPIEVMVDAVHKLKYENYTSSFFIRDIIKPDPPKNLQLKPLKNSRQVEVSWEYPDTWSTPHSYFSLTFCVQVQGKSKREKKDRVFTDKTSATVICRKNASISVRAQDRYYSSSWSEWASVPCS
Assay: kinetic ELISA, soluble polypeptide
Numbers only, in M⁻¹ s⁻¹.

Examples from the recorded data:
BINDER	UNIT_ANNOTATION	kon
MA9 (designed binder) MSIQQIQKEITTIQAVIAAIQKWIYTMTGGSGGSGGGGSGGSGGMSIEEIQKQIAAIQCQIAAIQKQIYAMTGSGGGGSGMSIEEIQKQIAAIQGQIIAIYKQIMAMKD	M⁻¹ s⁻¹	1.4e+06
59m_C2eQ (designed binder, also called design variant; polypeptide 19) single chain Alphabody: MSIQQIQKEIAQIQEVIAGIQKWIYMMTGGSGGSGGGGSGGSGGMSIEEIQKQIAAIQCQIAAIQKQIYAMTGSGGGGSGGSGGGGSGMSIEEIQKQITAIQEQIIAIYKQIMAMTP	M⁻¹ s⁻¹	110000
MA12 (designed binder, also called MAl2) MSIQEIQKEIAQIQAVIAGIQKYIYTMTGGSGGSGGGGSGGSGGMSIEEIQKQIAAIQCQIAAIQKQIYAMTGSGGGGSGGSGGGGSGMSIEEIQKQIAAIQEQILAIYKQIMAMVT	M⁻¹ s⁻¹	810000

Now let's try a different one.
What value of kon has been recorded for this entry: 59m_A3cA_A4cS_C2eQ (designed binder, also called design variant; polypeptide 20) single chain Alphabody: MSIQQIQKEIAQIQEVIAAIQKWIYSMTGGSGGSGGGGSGGSGGMSIEEIQKQIAAIQCQIAAIQKQIYAMTGSGGGGSGGSGGGGSGMSIEEIQKQITAIQEQIIAIYKQIMAMTP
350000
